Taken from ChEMBL document CHEMBL1157080.

system: HT-29; experiment: Growth inhibition of human HT-29 cells after 72 hrs by cell titer glo assay; format: functional, cell-based; settings: HT-29, 72 h
Provide the recorded pIC50 for the entries that follow.
FYI, pIC50 means -log10 of a concentration in mol per litre.

Q: What measured pIC50 goes with "COC(=O)[C@H]1Cc2c([nH]c3ccccc23)[C@@H](c2ccccc2Br)N1C(=O)CCl" ?
Ans: 5.80

Q: What measured pIC50 goes with "COC(=O)[C@H]1Cc2c([nH]c3ccccc23)[C@H](c2ccccc2Br)N1" ?
Ans: 4.11

Q: What measured pIC50 goes with "CN1CC(=O)N2[C@@H](c3ccccc3Br)c3[nH]c4ccccc4c3C[C@H]2C1=O" ?
Ans: 4.57

Q: What measured pIC50 goes with "COC(=O)[C@H]1Cc2c([nH]c3ccccc23)[C@@H](c2ccccc2Br)N1" ?
Ans: 4.32

Q: What measured pIC50 goes with "CCN1C(=O)[C@@H]2Cc3c([nH]c4ccccc34)[C@@H](c3ccccc3Br)N2C1=S" ?
Ans: 4.65

Q: What measured pIC50 goes with "COC(=O)[C@@H]1Cc2c([nH]c3ccccc23)[C@H](c2ccccc2Br)N1C(=O)CCl" ?
Ans: 5.39

Q: What measured pIC50 goes with "CCN1C(=O)[C@H]2Cc3c([nH]c4ccccc34)[C@@H](c3ccccc3Br)N2C1=O" ?
Ans: 4.68

Q: What measured pIC50 goes with "CCN1C(=O)[C@@H]2Cc3c([nH]c4ccccc34)[C@H](c3ccccc3Br)N2C1=O" ?
Ans: 4.62

Q: What measured pIC50 goes with "COC(=O)[C@@H]1Cc2c([nH]c3ccccc23)[C@H](c2ccccc2Br)N1" ?
Ans: 4.59

Q: What measured pIC50 goes with "CCN1C(=O)[C@@H]2Cc3c([nH]c4ccccc34)[C@@H](c3ccccc3Br)N2C1=O" ?
Ans: 4.70

Q: What measured pIC50 goes with "CN1CC(=O)N2[C@H](c3ccccc3Br)c3[nH]c4ccccc4c3C[C@H]2C1=O" ?
Ans: 4.59

---

molecular target: cGMP-specific 3',5'-cyclic phosphodiesterase (Homo sapiens, UniProt O76074); assay: Inhibition of human recombinant PDE5 after 1.5 hrs by fluorescent polarization assay
Label key: yes means IC50 under 300 nM; no means IC50 of 300 nM or more.

Q: For this compound, is IC50 lower than 300 nM? "CCN1C(=O)[C@@H]2Cc3c([nH]c4ccccc34)[C@H](c3ccccc3Br)N2C1=O"
Ans: no

Q: For this compound, is IC50 lower than 300 nM? "CN1CC(=O)N2[C@@H](c3ccccc3Br)c3[nH]c4ccccc4c3C[C@@H]2C1=O"
Ans: no

Q: For this compound, is IC50 lower than 300 nM? "CN1CC(=O)N2[C@H](c3ccccc3Br)c3[nH]c4ccccc4c3C[C@H]2C1=O"
Ans: yes

Q: For this compound, is IC50 lower than 300 nM? "CCCCN1CC(=O)N2[C@H](c3ccccc3Br)c3[nH]c4ccccc4c3C[C@H]2C1=O"
Ans: yes

Q: For this compound, is IC50 lower than 300 nM? "O=C1[C@H]2Cc3c([nH]c4ccccc34)[C@@H](c3ccccc3Br)N2C(=O)CN1Cc1ccccc1"
Ans: no

Q: For this compound, is IC50 lower than 300 nM? "CN1CC(=O)N2[C@H](c3ccccc3Br)c3[nH]c4ccccc4c3C[C@@H]2C1=O"
Ans: yes

Q: For this compound, is IC50 lower than 300 nM? "CCCCN1CC(=O)N2[C@H](c3ccccc3Br)c3[nH]c4ccccc4c3C[C@@H]2C1=O"
Ans: yes

Q: For this compound, is IC50 lower than 300 nM? "COC(=O)[C@@H]1Cc2c([nH]c3ccccc23)[C@@H](c2ccccc2Br)N1"
Ans: no
